# System: L. donovani intracellular amastigotes in THP1 cells
# Type: cell-based, Leishmania donovani
# test-context: read-out: L. donavani Amastigotes + THP1 IC50; intracellular amastigotes in differentiated THP1 macrophages
readout-type: pIC50
Lab note: report pIC50 as minus log10 of the concentration in molar units, number only.

Item under review: c1ccc(CN2CCCNCCN(Cc3ccccc3)CCCNCC2)cc1 [Bn2Cyclam (L10), 1,8-dibenzylcyclam] . Reported pIC50? 4.89

Let us now turn to c1ccc(CN2CCN3CCCN(CC2)CCN(Cc2ccccc2)CC3)cc1 [Bn2PBCyclen (L4)] 4.74

###

# assay-comment: Cytotoxicity against THP1 cell cultures
# Type: cell-based, human
# test-context: human, THP1 cell cultures
readout-type: IC50

Item under review: N=C(N)c1ccc(OCCCCCOc2ccc(C(=N)N)cc2)cc1 . Reported IC50? > 20 µM

Let us now turn to C[C@@H]1[C@H](O)[C@@H](C)/C=C/C=C/C=C/C=C/C=C/C=C/C=C/[C@H](O[C@@H]2O[C@H](C)[C@@H](O)[C@H](N)[C@@H]2O)C[C@@H]2O[C@](O)(C[C@@H](O)C[C@@H](O)[C@H](O)CC[C@@H](O)C[C@@H](O)CC(=O)O[C@H]1C)C[C@H](O)[C@H]2C(=O)O > 10 µM

###

# assay-comment: Cytotoxicity against THP1 cell cultures
# Assay type: cell-based, human
# test-context: human, THP1 cell cultures
Provide the reported IC90 of each item.

Item under review: N=C(N)c1ccc(OCCCCCOc2ccc(C(=N)N)cc2)cc1 . Reported IC90? > 25 µM

Let us now turn to C[C@@H]1[C@H](O)[C@@H](C)/C=C/C=C/C=C/C=C/C=C/C=C/C=C/[C@H](O[C@@H]2O[C@H](C)[C@@H](O)[C@H](N)[C@@H]2O)C[C@@H]2O[C@](O)(C[C@@H](O)C[C@@H](O)[C@H](O)CC[C@@H](O)C[C@@H](O)CC(=O)O[C@H]1C)C[C@H](O)[C@H]2C(=O)O > 10 µM

###

# Tested on: THP1 cells
# assay-comment: Cytotoxicity against THP1 cell cultures
# Assay type: cell-based, human
# test-context: read-out: THP1 cells (Cytotoxicity) IC90; THP1 cells
readout-type: IC90

Item under review: c1ccc(CN2CCN3CCCN(CC2)CCN(Cc2ccccc2)CC3)cc1 . Reported IC90? > 25 µM

Let us now turn to c1ccc(CN2CCCNCCN(Cc3ccccc3)CCCNCC2)cc1 > 25 µM

Let us now turn to CN1CCCN2CCN(CCCN(Cc3ccccc3)CC2)CC1 > 20 µM

Let us now turn to c1ccc(CN2CCN3CCN(CC2)CCN(Cc2ccccc2)CC3)cc1 > 25 µM

All values here come from paper PMC6452907.
